Ref: patent US20230295293A1

target: T1, Human FRα ECD-Avi-His (human, biotin on the Avi-tag (BirA) in the HTRF assays); assay: MOv19 HTRF epitope competition assay, geomean; IgG kept 2 weeks at 4°C; competitor MOv19
T1 construct: also called biotinylated human FRα; folate receptor alpha
T1 sequence (chain, as listed by the source limits assumed): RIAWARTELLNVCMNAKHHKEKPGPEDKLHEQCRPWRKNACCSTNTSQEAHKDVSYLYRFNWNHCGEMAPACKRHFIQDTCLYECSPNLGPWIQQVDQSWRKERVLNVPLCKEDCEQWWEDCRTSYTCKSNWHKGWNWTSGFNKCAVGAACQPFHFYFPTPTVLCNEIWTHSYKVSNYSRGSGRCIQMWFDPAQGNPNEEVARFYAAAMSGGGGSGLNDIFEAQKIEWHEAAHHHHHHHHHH
Quantity: IC50
Give the figure together with its unit, number first.

# Binder, Observed
rows = [
    ("AB1370026 hIgG1 (antibody, V domains shown) VH: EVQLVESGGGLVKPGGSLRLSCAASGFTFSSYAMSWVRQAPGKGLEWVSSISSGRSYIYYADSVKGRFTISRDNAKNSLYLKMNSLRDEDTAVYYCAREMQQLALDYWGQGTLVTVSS VL: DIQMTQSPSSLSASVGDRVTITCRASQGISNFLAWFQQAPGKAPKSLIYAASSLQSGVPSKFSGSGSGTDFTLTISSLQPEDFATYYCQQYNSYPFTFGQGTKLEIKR", "0.711 nM"),
    ("AB1370083 hIgG1 (antibody, V domains shown) VH: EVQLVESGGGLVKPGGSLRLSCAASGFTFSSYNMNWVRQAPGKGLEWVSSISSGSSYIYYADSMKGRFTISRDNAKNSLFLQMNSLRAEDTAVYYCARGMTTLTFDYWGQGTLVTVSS VL: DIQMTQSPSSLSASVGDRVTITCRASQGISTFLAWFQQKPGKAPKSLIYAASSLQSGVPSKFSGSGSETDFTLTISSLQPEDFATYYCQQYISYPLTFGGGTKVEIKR", "0.0511 nM"),
    ("AB1370035 hIgG1 (antibody, V domains shown) VH: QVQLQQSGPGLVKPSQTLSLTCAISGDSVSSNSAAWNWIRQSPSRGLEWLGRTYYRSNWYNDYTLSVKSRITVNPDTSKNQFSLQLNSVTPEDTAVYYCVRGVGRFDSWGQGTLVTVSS VL: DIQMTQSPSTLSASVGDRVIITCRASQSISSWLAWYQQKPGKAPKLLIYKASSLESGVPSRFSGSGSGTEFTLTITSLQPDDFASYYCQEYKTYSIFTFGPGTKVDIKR", "0.945 nM"),
]

Attention now shifts to the item below.
What the record says about AB1370095 hIgG1 (antibody, V domains shown) VH: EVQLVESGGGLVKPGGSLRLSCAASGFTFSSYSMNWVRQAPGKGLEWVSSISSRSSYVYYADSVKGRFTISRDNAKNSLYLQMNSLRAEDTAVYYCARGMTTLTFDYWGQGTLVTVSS VL: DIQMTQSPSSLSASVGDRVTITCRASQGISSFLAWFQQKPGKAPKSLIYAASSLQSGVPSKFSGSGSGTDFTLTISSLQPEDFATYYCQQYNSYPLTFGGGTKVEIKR : IC50 is 5.07 nM
